Entry source: patent US5561150A

Target: 5HT2C receptor
Assay: [3H]-5-HT binding assay, 5HT2C receptor (test method b)
Conditions: radioligand [3H]-5-HT, pki = -log10 Ki
measured-attribute: pKi, test method b

INSERT INTO assay_data (compound, assay_value) VALUES
  ('CCOc1ccc2c(c1)-c1c(cnn1CC(C)N)C2 (racemic)', 8.38),
  ('Cc1ccc2c(c1)-c1c(cnn1CC(C)N)C2(C)C (racemic)', 7.90),
  ('COc1ccc2c(c1)-c1c(c(C)nn1CC(C)N)C2 (racemic)', 7.13),
  ('CC(N)Cn1ncc2c1-c1cc(F)ccc1C2 (racemic)', 7.51),
  ('COc1ccc2c(c1)-c1c(cnn1CC(C)N)C2 (racemic)', 8.26),
  ('CC(N)Cn1ncc2c1-c1cc(F)ccc1C2(C)C (racemic)', 7.72);

// next item, pKi, test method b requested
[ask] Look up and state reported pKi, test method b for COc1ccc2c(c1)-c1c(cnn1CC(C)N)CC2.O=C(O)/C=C/C(=O)O (racemic)
[reply] 8.28
